Experimental system: Cathepsin S (Homo sapiens)
Sequence (P25774 whole entry): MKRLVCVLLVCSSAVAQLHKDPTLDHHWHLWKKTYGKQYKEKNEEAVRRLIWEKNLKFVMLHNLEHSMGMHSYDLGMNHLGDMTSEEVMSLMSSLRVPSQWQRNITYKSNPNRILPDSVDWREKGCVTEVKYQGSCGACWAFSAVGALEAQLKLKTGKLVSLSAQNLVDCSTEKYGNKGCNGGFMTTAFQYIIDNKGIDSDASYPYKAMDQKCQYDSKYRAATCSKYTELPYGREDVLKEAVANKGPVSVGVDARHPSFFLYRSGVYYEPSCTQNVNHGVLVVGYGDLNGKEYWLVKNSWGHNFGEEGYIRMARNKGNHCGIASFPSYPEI
Endpoint: pIC50
Remember, pIC50 is on a log scale: it is -log10 of the molar concentration.

// lookup pIC50 | system=Cathepsin S (Homo sapiens) | key= `N#CC1(NC(=O)[C@@H]2Cc3ccc(c(Cl)c3)OCCCCOc3cc(C(F)(F)F)ccc3C(=O)N2)CC1`
5.57

----------
Item-by-item account of selectivity ratio
Procedure text: Selectivity index, ratio of IC50 for rat L6 cells to IC50 for bloodstream form of Trypanosoma brucei rhodesiense STIB 900
Format: toxicity
Measurement parameters: L6 cells, read-out: Ratio IC50

Answered cases to consult:
{"columns": ["Record smiles", "selectivity ratio"],
 "data": [
  ["N#CC1(NC(=O)[C@@H]2Cc3ccc(c(-c4cc[nH]n4)c3)OCCCCOc3ccccc3C(=O)N2)CC1", 70],
  ["N#CC1(NC(=O)[C@@H]2Cc3ccc(c(-c4cccnc4)c3)OCCCCOc3cc(C(F)(F)F)ccc3C(=O)N2)CC1", 4010]
]}

Please examine the following record next.
Item `CC(C)(C)c1cc2nn1CC/C=C/COc1ccc(cc1Cl)C[C@@H](C(=O)NC1(C#N)CC1)NC2=O` has what recorded selectivity ratio?
64200

----------
Procedure text: Solubility of the compound at pH 6.5 by LYSA
Format: physicochemical
Measurement parameters: buffer
Endpoint: solubility

Return reported solubility; argument: `N#CC1(NC(=O)[C@@H]2Cc3ccc(c(Cl)c3)OCCCCOc3cc(C(F)(F)F)ccc3C(=O)N2)CC1`
12 µg/mL

----------
Experimental system: Cathepsin L2 (Homo sapiens)
Sequence (O60911 whole entry): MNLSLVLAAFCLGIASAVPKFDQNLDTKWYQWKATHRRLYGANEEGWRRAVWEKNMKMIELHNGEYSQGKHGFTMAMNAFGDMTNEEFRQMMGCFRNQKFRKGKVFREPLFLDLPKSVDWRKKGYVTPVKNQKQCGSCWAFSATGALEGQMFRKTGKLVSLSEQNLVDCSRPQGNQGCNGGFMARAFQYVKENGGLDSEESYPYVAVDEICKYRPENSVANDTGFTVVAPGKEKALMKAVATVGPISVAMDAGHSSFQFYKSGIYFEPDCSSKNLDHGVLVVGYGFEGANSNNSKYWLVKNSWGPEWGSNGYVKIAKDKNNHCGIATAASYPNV
Endpoint: IC50 (µM)
Please state the figure in µM; there is no need to write the unit.

Reported IC50 for `N#CC1(NC(=O)[C@@H]2Cc3ccc(c(Cl)c3)OCCCCOc3cc(C(F)(F)F)ccc3C(=O)N2)CC1` : what is it?
1.04

----------
Procedure text: Selectivity index, ratio of Ki for human CatL to Ki for Trypanosoma brucei rhodesiense rhodesain
Endpoint: Ratio Ki

What does the data say about its Ratio Ki? Entry: N#CC1(NC(=O)[C@@H]2Cc3ccc(c(Cl)c3)OC/C=C/COc3cc(-c4ccc(Cl)nc4)ccc3C(=O)N2)CC1 (mixture of isomers)
2.4

----------
System: MDR1
Procedure text: Efflux ratio of permeability across pig LLC-PK1 cells expressing human MDR1 at 1 uM after 3.5 hrs by LC-MS/MS analysis
Format: ADME, cell-based, Sus scrofa
efflux ratio at 3.5 h, 1 µM for assorted molecules
Keep it simple and answer with nothing but the number.

{"columns": ["Record smiles", "Numeric readout"],
 "data": [
  ["N#CC1(NC(=O)[C@@H]2Cc3ccc(c(Cl)c3)OCCCCOc3cc4c(cc3C(=O)N2)CCCC4)CC1", 26]
]}

Recall the recorded efflux ratio at 3.5 h, 1 µM for `N#CC1(NC(=O)[C@@H]2Cc3ccc(c(Cl)c3)OCCCCOc3cc(C(F)(F)F)ccc3C(=O)N2)CC1` with MDR1 and state it.
26

The reported measurements were obtained from ChEMBL document CHEMBL4043299.
